targetDesc: UniProtKB Q15858
assayExplanation: Tritiated compound binding to membranes from cells heterologously expressing hNav1.7 and the β1 subunit (Nav1.7 LBA)
recordedConditions: competitive binding vs [3H]compound, membranes with hNav1.7 and β1 subunit; read-out: Nav1.7 LBA EVO IC50
Sequence (Q15858 whole entry, looked up): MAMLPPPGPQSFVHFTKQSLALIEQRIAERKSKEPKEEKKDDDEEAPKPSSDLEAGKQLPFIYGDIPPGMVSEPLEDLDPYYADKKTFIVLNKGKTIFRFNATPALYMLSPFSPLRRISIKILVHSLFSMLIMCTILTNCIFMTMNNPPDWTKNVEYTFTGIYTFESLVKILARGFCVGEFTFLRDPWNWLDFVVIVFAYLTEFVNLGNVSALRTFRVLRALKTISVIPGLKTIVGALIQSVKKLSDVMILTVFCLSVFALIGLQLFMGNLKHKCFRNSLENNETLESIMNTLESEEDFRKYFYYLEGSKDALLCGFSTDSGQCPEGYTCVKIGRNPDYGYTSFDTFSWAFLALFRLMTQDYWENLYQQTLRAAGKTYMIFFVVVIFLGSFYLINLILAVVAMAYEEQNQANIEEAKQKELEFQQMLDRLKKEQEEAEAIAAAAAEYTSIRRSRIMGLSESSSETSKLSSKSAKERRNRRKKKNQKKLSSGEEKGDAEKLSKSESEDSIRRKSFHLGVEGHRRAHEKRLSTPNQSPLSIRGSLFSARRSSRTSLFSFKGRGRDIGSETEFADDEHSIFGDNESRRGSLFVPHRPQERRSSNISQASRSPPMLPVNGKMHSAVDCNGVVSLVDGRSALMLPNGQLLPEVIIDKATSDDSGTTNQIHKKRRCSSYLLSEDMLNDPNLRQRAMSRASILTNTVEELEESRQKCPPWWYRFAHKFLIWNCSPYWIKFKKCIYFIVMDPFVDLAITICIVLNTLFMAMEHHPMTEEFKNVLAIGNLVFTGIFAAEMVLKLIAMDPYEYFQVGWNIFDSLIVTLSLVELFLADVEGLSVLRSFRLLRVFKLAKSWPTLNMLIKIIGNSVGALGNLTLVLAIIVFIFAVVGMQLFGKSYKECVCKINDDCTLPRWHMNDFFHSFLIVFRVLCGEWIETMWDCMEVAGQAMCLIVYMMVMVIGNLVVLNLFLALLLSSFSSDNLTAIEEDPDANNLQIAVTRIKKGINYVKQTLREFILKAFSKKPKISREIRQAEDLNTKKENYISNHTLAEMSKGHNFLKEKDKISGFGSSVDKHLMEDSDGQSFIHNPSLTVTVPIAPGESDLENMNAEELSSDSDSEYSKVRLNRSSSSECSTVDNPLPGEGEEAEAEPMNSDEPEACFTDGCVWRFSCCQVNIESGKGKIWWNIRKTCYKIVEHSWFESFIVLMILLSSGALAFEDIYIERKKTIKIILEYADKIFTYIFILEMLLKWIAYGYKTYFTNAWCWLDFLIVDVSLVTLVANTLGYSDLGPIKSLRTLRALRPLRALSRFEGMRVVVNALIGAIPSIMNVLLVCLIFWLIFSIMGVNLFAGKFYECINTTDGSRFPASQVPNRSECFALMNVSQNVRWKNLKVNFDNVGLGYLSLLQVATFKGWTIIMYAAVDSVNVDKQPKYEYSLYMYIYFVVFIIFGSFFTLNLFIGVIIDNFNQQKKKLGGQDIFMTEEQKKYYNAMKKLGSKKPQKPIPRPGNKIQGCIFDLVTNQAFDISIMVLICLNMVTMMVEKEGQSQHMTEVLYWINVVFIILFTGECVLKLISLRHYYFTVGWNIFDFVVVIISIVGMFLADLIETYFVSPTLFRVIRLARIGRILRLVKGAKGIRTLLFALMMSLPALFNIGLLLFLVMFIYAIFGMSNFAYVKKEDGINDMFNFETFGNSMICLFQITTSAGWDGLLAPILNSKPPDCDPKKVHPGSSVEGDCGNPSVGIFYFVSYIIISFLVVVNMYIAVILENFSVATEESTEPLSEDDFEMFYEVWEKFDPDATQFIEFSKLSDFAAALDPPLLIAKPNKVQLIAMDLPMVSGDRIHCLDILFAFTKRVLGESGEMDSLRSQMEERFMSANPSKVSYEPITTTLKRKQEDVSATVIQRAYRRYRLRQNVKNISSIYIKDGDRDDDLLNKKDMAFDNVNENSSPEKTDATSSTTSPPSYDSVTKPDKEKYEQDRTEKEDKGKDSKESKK
Sequence (Q07699 whole entry partner, looked up): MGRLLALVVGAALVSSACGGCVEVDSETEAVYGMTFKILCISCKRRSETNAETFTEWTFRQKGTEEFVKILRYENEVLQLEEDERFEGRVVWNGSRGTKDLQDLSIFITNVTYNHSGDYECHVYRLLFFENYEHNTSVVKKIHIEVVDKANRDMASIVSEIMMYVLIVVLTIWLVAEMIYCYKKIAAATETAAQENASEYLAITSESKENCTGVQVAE
Where a name gives a salt, the structure may show the parent alone.
Each item that follows carries a reported IC50.
Provide only the numeric value, understood in nM.

As a guide, the following entries are already answered.
1) CN(C)[C@H]1CN(S(=O)(=O)c2cccc(C(F)(F)F)c2)CC[C@@H]1Nc1cc(F)c(S(=O)(=O)Nc2ccncn2)cc1Cl [Example 73, formate]; 82.3
2) O=S(=O)(Nc1ccncn1)c1cc(Cl)c(O[C@H]2CC[C@H](c3cccc(OC(F)(F)F)c3)C[C@@H]2N2CCCC2)cc1F [Example 64, formate]; 1.37

Value lookup for IC50; key = CN(C)[C@H]1C[C@@H](c2cccc(C(F)(F)F)c2)CC[C@@H]1Nc1c(F)cc(S(=O)(=O)Nc2ccncn2)cc1F [Example 88] 170

Value lookup for IC50; key = CN(C)[C@H]1C[C@@H](c2ccc(F)c(C(F)(F)F)c2)CC[C@@H]1Nc1cc(F)c(S(=O)(=O)Nc2ccncn2)cc1Cl [Example 6] 0.791

Value lookup for IC50; key = CN(C)[C@@H]1C[C@](O)(c2cccc(C(F)(F)F)c2)CC[C@H]1Nc1cc(F)c(S(=O)(=O)Nc2ccncn2)cc1Cl (single isomer, unassigned) [Example 36, formate] 309

Value lookup for IC50; key = CN(C)[C@H]1C[C@@H](c2cccc(C3CCOCC3)c2)CC[C@@H]1Oc1cc(F)c(S(=O)(=O)Nc2ccncn2)cc1Cl [Example 83] 38.6

---

Each item that follows carries a reported IC50.
targetDesc: hNav1.7 (Homo sapiens (Human))
assayExplanation: Electrophysiological assay (EP), voltage clamp on Syncropatch 384PE, CHO cells stably expressing Nav1.7
Format: cell-based
recordedConditions: holding potential −50 mV, 7.5 min compound incubation, read-out: EP_SP hNav1.7 EVO IC50
Sequence (Q15858 other isoform, or with tags, fused parts or gaps): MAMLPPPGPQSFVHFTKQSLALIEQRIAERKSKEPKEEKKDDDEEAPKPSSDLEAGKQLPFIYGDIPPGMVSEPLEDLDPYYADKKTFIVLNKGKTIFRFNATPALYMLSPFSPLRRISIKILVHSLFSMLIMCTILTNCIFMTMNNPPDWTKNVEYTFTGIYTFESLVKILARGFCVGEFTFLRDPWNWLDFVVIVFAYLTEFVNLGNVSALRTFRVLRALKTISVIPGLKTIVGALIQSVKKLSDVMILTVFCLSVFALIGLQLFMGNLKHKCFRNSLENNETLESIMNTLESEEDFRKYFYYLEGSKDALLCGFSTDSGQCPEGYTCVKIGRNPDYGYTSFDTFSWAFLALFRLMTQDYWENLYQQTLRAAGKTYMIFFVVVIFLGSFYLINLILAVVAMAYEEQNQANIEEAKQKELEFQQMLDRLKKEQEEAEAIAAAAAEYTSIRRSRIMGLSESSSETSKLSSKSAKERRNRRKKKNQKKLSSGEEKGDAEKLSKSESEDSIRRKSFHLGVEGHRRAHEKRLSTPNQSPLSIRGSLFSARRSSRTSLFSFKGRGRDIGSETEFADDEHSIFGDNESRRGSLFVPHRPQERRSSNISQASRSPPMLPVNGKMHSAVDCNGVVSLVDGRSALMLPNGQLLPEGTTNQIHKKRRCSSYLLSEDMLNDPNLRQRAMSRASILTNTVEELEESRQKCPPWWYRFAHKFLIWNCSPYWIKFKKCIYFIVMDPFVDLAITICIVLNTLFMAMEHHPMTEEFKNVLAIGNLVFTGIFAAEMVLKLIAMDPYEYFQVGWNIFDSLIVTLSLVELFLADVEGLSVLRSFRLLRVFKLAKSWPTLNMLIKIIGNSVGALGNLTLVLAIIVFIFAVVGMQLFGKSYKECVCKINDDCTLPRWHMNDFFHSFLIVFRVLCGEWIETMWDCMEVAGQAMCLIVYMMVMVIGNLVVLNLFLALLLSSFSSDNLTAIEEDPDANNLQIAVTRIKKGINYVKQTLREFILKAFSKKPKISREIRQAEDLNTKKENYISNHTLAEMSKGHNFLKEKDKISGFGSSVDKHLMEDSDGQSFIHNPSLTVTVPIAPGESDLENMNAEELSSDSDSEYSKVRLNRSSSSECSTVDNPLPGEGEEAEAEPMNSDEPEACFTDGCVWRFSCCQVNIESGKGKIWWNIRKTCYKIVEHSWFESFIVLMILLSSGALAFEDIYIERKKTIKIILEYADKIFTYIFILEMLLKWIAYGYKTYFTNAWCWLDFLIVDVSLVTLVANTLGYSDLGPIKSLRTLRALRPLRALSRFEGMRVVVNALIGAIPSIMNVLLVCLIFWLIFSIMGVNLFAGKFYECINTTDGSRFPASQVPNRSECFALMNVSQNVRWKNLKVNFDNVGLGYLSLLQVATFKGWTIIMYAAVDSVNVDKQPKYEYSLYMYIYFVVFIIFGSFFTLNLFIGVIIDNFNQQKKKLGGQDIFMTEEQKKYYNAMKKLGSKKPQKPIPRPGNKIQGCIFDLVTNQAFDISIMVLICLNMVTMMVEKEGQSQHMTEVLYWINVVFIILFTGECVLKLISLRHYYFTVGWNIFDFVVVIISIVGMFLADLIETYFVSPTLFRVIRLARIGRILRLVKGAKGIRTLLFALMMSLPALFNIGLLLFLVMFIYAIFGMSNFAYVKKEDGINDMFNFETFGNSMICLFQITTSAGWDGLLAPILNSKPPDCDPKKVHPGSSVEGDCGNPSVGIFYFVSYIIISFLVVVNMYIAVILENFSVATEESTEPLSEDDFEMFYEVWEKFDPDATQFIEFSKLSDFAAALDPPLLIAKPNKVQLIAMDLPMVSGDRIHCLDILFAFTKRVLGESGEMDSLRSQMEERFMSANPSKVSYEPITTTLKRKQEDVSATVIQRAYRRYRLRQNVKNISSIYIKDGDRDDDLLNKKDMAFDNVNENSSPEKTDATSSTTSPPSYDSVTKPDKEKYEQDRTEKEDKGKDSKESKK
Where a name gives a salt, the structure may show the parent alone.
Provide only the numeric value, understood in nM.

1) CN(C)[C@H]1C[C@@H](c2cccc(C(F)(F)F)c2)CC[C@@H]1n1c(=O)oc2cc(S(=O)(=O)Nc3ccncn3)c(F)cc21 [Example 3, formate]; 26.2
2) CC(C)[C@H](N)C(=O)N(C)[C@H]1C[C@@H](c2cccc(C(F)(F)F)c2)CC[C@@H]1Nc1cc(F)c(S(=O)(=O)Nc2ccncn2)cc1Cl [Example 31, formate]; 0.462
3) CN(C)[C@H]1C[C@@H](c2cc(C(F)(F)F)ccc2F)CC[C@@H]1Oc1cc(F)c(S(=O)(=O)Nc2ccncn2)cc1Cl; 1.85
4) CN(C)[C@H]1C[C@@H](c2cccc(C(F)(F)F)c2)CC[C@@H]1Nc1c(F)cc(S(=O)(=O)Nc2ccncn2)cc1F; 17
5) CN(C)[C@H]1C[C@@H](c2cc(C(F)(F)F)ccc2F)CC[C@@H]1Nc1cc(F)c(S(=O)(=O)Nc2ccncn2)cc1Cl; 1.55

Kindly review the next compound as well.
Value lookup for IC50; key = CN(CCO)[C@H]1C[C@@H](c2cccc(C(F)(F)F)c2)CC[C@@H]1Nc1cc(F)c(S(=O)(=O)Nc2ccncn2)cc1Cl 0.534

---

Each item that follows carries a reported log10 of IC50.
targetDesc: hNav1.7 (Homo sapiens (Human))
assayExplanation: Electrophysiological assay (EP), voltage clamp on Syncropatch 384PE, CHO cells stably expressing Nav1.7
Type: cell-based
recordedConditions: holding potential −50 mV, 7.5 min compound incubation, read-out: EP_SP hNav1.7 EVO IC50
Structures can show the parent of a compound that is named as a salt.
Hi team, quick reminder: these entries are log10 of IC50 (nM).

1. CN(C)[C@@H]1C[C@](O)(c2cccc(C(F)(F)F)c2)CC[C@H]1Nc1cc(F)c(S(=O)(=O)Nc2ccncn2)cc1Cl (single isomer, unassigned) [Example 36, formate]; 2.16
2. CN(C)[C@H]1C[C@@H](c2cccc(OC(F)(F)F)c2)CC[C@@H]1Oc1cc(F)c(S(=O)(=O)Nc2ccncn2)cc1F [Example 59, formate]; 0.21
3. Cc1cccc([C@H]2CC[C@H](Nc3cc(F)c(S(=O)(=O)Nc4ccncn4)cc3Cl)[C@@H](N(C)C)C2)c1 [Example 11, formate]; 0.21

Value lookup for log10 of IC50; key = CN(C)[C@H]1C[C@@H](c2ccnc(C(F)(F)F)c2)CC[C@@H]1Oc1cc(F)c(S(=O)(=O)Nc2ccncn2)cc1Cl [Example 76, formate] 0.94

Value lookup for log10 of IC50; key = CN(C)[C@H]1C[C@@H](c2cccc(OC(F)(F)F)c2)CC[C@@H]1Nc1cc(F)c(S(=O)(=O)Nc2ccncn2)cc1F -0.17

Value lookup for log10 of IC50; key = CN(C)[C@H]1C[C@@H](c2cccc(C(F)(F)F)c2)CC[C@@H]1N1CCCc2cc(S(=O)(=O)Nc3ccncn3)c(F)cc21 0.15

Value lookup for log10 of IC50; key = O=S(=O)(Nc1ccncn1)c1cc(Cl)c(O[C@H]2CC[C@H](c3cccc(C(F)(F)F)c3)C[C@@H]2N2CCC(O)C2)cc1F (stereo partly drawn) [Example 90, formate] -0.24

Value lookup for log10 of IC50; key = CN(C)[C@H]1C[C@@H](c2cccc(C(F)(F)F)c2)CC[C@@H]1N1C(=O)CCc2cc(S(=O)(=O)Nc3ccncn3)c(F)cc21 0.43

---

targetDesc: hNav1.7 (Homo sapiens (Human), UniProt Q15858)
assayExplanation: Electrophysiological assay (EP), voltage clamp on Syncropatch 384PE, CHO cells stably expressing Nav1.7
Format: cell-based
recordedConditions: holding potential −50 mV, 7.5 min compound incubation, read-out: EP_SP hNav1.7 EVO IC50
Counter-ions that a name gives are not always drawn.
Each item that follows carries a reported pIC50.
A value of pIC50 is the negative decimal logarithm of a concentration given in moles per litre.

As a guide, the following entries are already answered.
1. O=S(=O)(Nc1ccncn1)c1cc2c(cc1F)N([C@H]1CC[C@H](c3cccc(C(F)(F)F)c3)C[C@@H]1N1CCCC1)CCO2; 8.94
2. CN(C)[C@H]1C[C@@H](c2ccc(Cl)c(Cl)c2)CC[C@@H]1Nc1cc(F)c(S(=O)(=O)Nc2ccncn2)cc1Cl; 9.52
3. CN(C)[C@H]1C[C@@H](c2cc(Cl)ccc2Cl)CC[C@@H]1Oc1cc(F)c(S(=O)(=O)Nc2ccncn2)cc1Cl [Example 65, formate]; 8.99
4. CN(C)[C@H]1C[C@@H](c2cccc(F)c2)CC[C@@H]1Nc1cc(F)c(S(=O)(=O)Nc2ccncn2)cc1Cl [Example 26, formate]; 8.53
5. CN(C)[C@H]1CN(S(=O)(=O)c2cccc(C(F)(F)F)c2)CC[C@@H]1Nc1cc(F)c(S(=O)(=O)Nc2ccncn2)cc1Cl [Example 73, formate]; 8.48

Value lookup for pIC50; key = O=S(=O)(Nc1ccncn1)c1cc(F)c(N[C@H]2CC[C@H](c3ccc(F)c(C(F)(F)F)c3)C[C@@H]2N2CCCC2)cc1F 9.28

---

Each item that follows carries a reported IC50.
targetDesc: hNav1.7 (Homo sapiens (Human))
assayExplanation: Electrophysiological assay (EP), voltage clamp on Syncropatch 384PE, CHO cells stably expressing Nav1.7
Format: cell-based
recordedConditions: holding potential −50 mV, 7.5 min compound incubation, read-out: EP_SP hNav1.7 EVO IC50
Counter-ions that a name gives are not always drawn.
Please answer in the form of a number followed by its unit of measurement.

As a guide, the following entries are already answered.
1) CN(C)[C@H]1C[C@@H](c2cc(F)cc(C(F)(F)F)c2)CC[C@@H]1Nc1cc(F)c(S(=O)(=O)Nc2ccncn2)cc1Cl; 0.61 nM
2) CN(C)[C@H]1C[C@@H](c2cc(C(F)(F)F)ccc2Cl)CC[C@@H]1Oc1cc(F)c(S(=O)(=O)Nc2ccncn2)cc1Cl; 0.819 nM
3) CN(C1CNC1)[C@H]1C[C@@H](c2cccc(C(F)(F)F)c2)CC[C@@H]1Nc1cc(F)c(S(=O)(=O)Nc2ccncn2)cc1Cl; 0.141 nM

Value lookup for IC50; key = CN(C)[C@H]1C[C@@H](Cc2cccc(C(F)(F)F)c2)CC[C@@H]1Nc1cc(F)c(S(=O)(=O)Nc2ccncn2)cc1Cl 0.991 nM

Value lookup for IC50; key = CN(C)[C@H]1C[C@@H](c2cccc(C3(C(F)(F)F)CC3)c2)CC[C@@H]1Nc1cc(F)c(S(=O)(=O)Nc2ccncn2)cc1Cl 0.263 nM

Value lookup for IC50; key = CN(C)[C@H]1C[C@@H](c2cccc(C(F)(F)F)c2)CC[C@@H]1N1C(=O)COc2cc(S(=O)(=O)Nc3ccncn3)c(F)cc21 [Example 1, formate] 3.13 nM
